# reported protein stability index; entries follow
- Test Method Notes: protein stability index of a GFP-peptide fusion (GPS, HEK-293T) (PSI 1-6); higher = more stable;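 also: 24-mer peptide tiles fused after GFP, lentivirally expressed, FACS-sorted into six equal bins by GFP/DsRed ratio, decoded by Illumina sequencing, PSI is the read-weighted mean bin number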
- Settings: treatment: MLN4924 1 uM, 8 h; c terminus: a fixed tail appended

Sequence String	protein stability index
VGELLPCKICGRTFFPVALKKHGP [ZC2HC1A]	2.57
RGFVFGGRYRDARMNDLHYLNLDT [KLHDC2]	2.59
HTKELEDKVIELHKSHRGMTPAEA [EPB41L3]	5.13
VGSGGATSGKLLLEADELCDDGGD [ZBTB22]	5.55
AEQRGDNALKDARAKLDELEGALH [KRT71]	5.37
WQVLCMLSLCCWGWVSGQLRYSVV [PCDHGC5]	3.04
MFPGVLLPLLESCSVRPDASVSSH [TCF25]	2.18
GAHEQVDFKDFYPAIADLFAESLQ [P3H4]	3.08
PDLNTLLWEAEDRQNVPRKVPNHY [CPXM2]	3.86
QFSDEVEPATPEEGEPATQRQDPA [GAGE1]	5.57
HQRIPQSVRILGSLVAILLVFLIT [SLC29A1]	2.33
RIQIWFQNRRAKLKRSHRESQFLM [HESX1]	2.15
NQILMEKYLKLQDTCRTQLVWLVR [INTS3]	2.38
ACAQLATGAACRLVEAVLSGEVLN [HDAC6]	2.65
SPRGPAPGEEKFENLEGVPSVCSE [ZNF263]	5.44
SLRSYLKRRGPQRSVDVVVSSVFL [PHTF1]	2.09
MRRMVATWMLEVCEEQKCEEEVFP [CCND2]	3.14
LSFAHANCTLIISYQKPKEVVVAE [DPCD]	2.79
RAPGAGLGQDRQVPLWGQLLLFLV [EMD]	2.09
LHSSILTCTLLLLYSLAPTMGAVV [MFSD9]	2.94
HPDIFLPSEICDRLVNEYVELVNA [ZER1]	2.97
GPCKNCKMIMDTAGNDPYCFVEFH [TIA1]	2.25
SRPAVGPPQPGCPAFIIVKLSPLR [ZSWIM9]	2.33
QLRFQHSQDVSDCYLELFPAHLYF [PLEKHN1]	2.27
ELFIITQLQSMPSRELASMNLDIV [RHOBTB3]	3.25
IHKGEKPYQCSQCSKSYSRRSFLI [ZSCAN9]	2.12
MLESPGAPCRSAQASVSCALEALE [HDAC6]	3.38
GDDGIVVVWNAQTGEKLLELNGHT [WDR41]	3.3
SVPIIGGFWETIFGNRIKRVKLIS [PHTF1]	1.94
KAIKQKLWEALCSQGAISEGAQRD [C22orf31]	2.85
SRRVLLTNVVTGHRQSFGTNSDVL [DCAF4]	3.04
KSKTRSLLKRMESLKLKSSHHSKH [DLC1]	3.53
WDLNMENRPIETYQVHDYLRSKLC [PPP2R2B]	2.72
SALTFLRVDQDKDKDCSLDCAGSP [SMOC2]	5
WKVRYDTFIVSCKFSPDGKYVVSG [WDR88]	2.49
ELTLARTDLEMQIEGLKEELAYLR [KRT16]	2.79
TSPHFSTRHEGSFQVPVLCAVMNV [CD69]	2.63
RQYRSIEVLIGAGYSTPADIWSTA [SRPK2]	2
EKGETMEVIEKPENDPEWWKCKNA [NCK2]	5.49
TLSFNMSDKYPIQDTELPKAEECD [EDARADD]	4.36
QMPKFDLGPLLSEPLVLYNQNLSN [MYOZ1]	3
APDRATAVATASRLGPYVLLEPEE [TRIB3]	5.04
SSSGYSSAEINQDLNIQLLKDGYR [FAM219A]	3.85
RWDPVRRRFIQSCPIIRIPNRFLR [KLHDC10]	2.49
LVDHVGSKTFLCIGSSVMAASLVT [SLC2A12]	3.05
YLSKTYCVDATRETNRLGRLINHS [KMT5A]	2.62
GVTGWCTGFIFQKVGKLAATAVGG [FUNDC2]	2.48
ELPTRIHEEVYFEPSSSKDSDENS [MIA2]	4.79
GAKDHASIQMNVAEVSWEPGRREG [RPS21]	4.41
SQNSSLVQHERIHTGDKPYKCAEC [ZNF8]	4.82
SPTGLSPYLRFGCLSCRLFYFKLT [CRY1]	2.14
LTVYAWERGSMKTHFNTAQGFRTV [OAS1]	2.52
LYLRVELSDVQNPAISITENVLHF [HACD3]	2.88
